Experiment: Tissue distribution of radioactivity after intravenous injection
Type: in vivo, BALB/C mice
Conditions: mouse, carcass, iv; 1 h, i.v.; read-out: Percent of Injected Dose per Gram, Carcass
Text: Tables 1 and 2 show the percent of injected IAZG and IAZA respectively per gram of wet tissue for selected tissues excised from BALB/C mice bearing EMT-6 tumors. This tumor model is known to have a high hypoxic fraction (0.33) (16). […] Hepatobiliary excretion may play a role in blood clearance as evidenced by elevated liver radioactivity and the appearance of activity in the intestine. […] This supposition is supported by the persistence of liver radioactivity at longer time periods. […]
ATTRIBUTE MEASURED: tissue uptake at 1 h
Quote the value and follow it with the unit of measurement.

Item O=[N+]([O-])c1nccn1[C@@H]1O[C@H](CI)[C@@H](O)[C@@H]1O [IAZA] has what recorded tissue uptake at 1 h? 2.23 %ID/g
